- experiment summary: yeast display, Sf9 membrane polyspecificity reagent, FACS + sequencing; frameworks hold sequencing errors
parameter measured: polyreactivity (PSR sort gate)

Use these answered entries as a reference point.
QVQLVESGGGLVQAGGSLRLSCAASGRIFRHYAMGWYRQAPGKERELVAAINWNGGSTYYADSVKGRFTISRDNAKNTVYLQMNSLKPEDTAVYYCAARYRYVRGMDYWGQGTQVTVSS
high polyreactivity
QVQLVESGGGLVQAGGSLRLSCAASGIIFRSYTMGWYRQAPGKERELVASITRSGGITYYADSVKGRFTISRDNAKNTVYLQMNSLKPEDTAVYYCAARHRYYYQYRSDYWGQGTQVTVSS
high polyreactivity
QVQLVESGGGLVQAGGSLRISCAASGRTFKSYAMGWYRQAPGKERELVAAISSSGGRTFYADSVKGRFTISRDNAKNTVYLQMNSLKPEDTAVYYCNARYCYRYGGYKPVGGYYWGQGTQVTVSS
high polyreactivity
QVQLVESGGGLVQAGGSLRLSCAASGRTIRAYTMGWSRQAPGKERELVAAISTPGGSTYYADSVKGRFTISRDNAKNTVYLQMNSLKPEDTAVYYCAADYGGPITGYEYWGQGTQVTVSS
low polyreactivity
QVQLVESVGGLVQAGGSLRLSSAASGLIFDVYPMGWYSQGPGKERELVAAISTSGGRTYYADSVKGRFTISRDNAKNTVYLQMTSLKPEDTAVYYCAAVSPHNRYGYKYDYWGQGTQVTVSS
high polyreactivity
KVQLVETGGGLVQAGGSLRLSCAASGSILIYNAMGWYRQAPGKERELVAGISRRGASTYYADSVKGRFTNSRDNAKKTVYLQMKSLKPEDTAVYYCAALGKYIVAWSGDFWGQGTQVTVSS
low polyreactivity
QLQLVESGGGIVQAGGSLRLSCAPSGRIFFPNAMGSYRQAPGTERELVAGISIGGSTNYADSVKGRFTISRDNAKNTVYLQMNSLKPEDTAVYYWAARSPFGRWRDYWGQGTQVTVSS
low polyreactivity
QVELVVSGGGLVQPGGSLRLSCAASGSTFFNNGMGWYRQSPGKERELVATITKRGGNTYYADSVKGRFTISRDNAKNTVYLQMNSLKPEDTAVYYCAALRYKLPLGYWGQGTQVTVSS
high polyreactivity

IN: Which measured polyreactivity (PSR sort gate) value corresponds to QVQLVESGGGLVQAGASLRLSCAASGRIFWHNAMGWYRQAPGKERELVAAMTRGGSTYYADSVKGRFTISRDNAKNTVYLQMNSLKPEDTAVYYCATLGSLRYYWPGYDYWGQGTQVTVSS ?
OUT: low polyreactivity

IN: Any idea what its polyreactivity (PSR sort gate) is? The sequence is QVELEESGGGLVQAGGSLRLSCAASGFIFRYYALGWYRPGPGTVRELVAVISSSGSTHYADSVKGRITISRDNAKNTVYLQMNSLKPEDTAVYYCAADGNVWSGPRYDYWGQGTQLTVSS
OUT: low polyreactivity

IN: Given the entry QVQLVESGGCLVQAGGSLRLSCAATGSIFYGNTMVWYRQAPGKDRELLAAISSGGSTKYADSVKGRFTISRDNAKNTVYLQMNSLKPEDTAVYYCAADLPRYWVTWMDYRGQGTQVTVSS , report its measured polyreactivity (PSR sort gate).
OUT: low polyreactivity

IN: Endpoint output: polyreactivity (PSR sort gate) of QVQLVESGGGLVQAGGSLRLSCAASGSTFDYYPMGWYRQAPGKERELVAGIDSAGSTNYADSVKGRFTISRDNAKNTVYLQMNSLKTGRYRGLYCNVGKTITTYAFPTFDYWGQGTQVTVSS . Value?
OUT: low polyreactivity

IN: Look up polyreactivity (PSR sort gate) for this sequence: QVQLVESGGGLDQAGGSLRLSCAASGRTFYANPMGWYRQAPGKQRELVAAIRRSGGRTYYADSVKGRFTISRDNAKNTVYLQMNSLKPEDTAVYYCATARYRAEMGYWGQGTQVTVSS
OUT: high polyreactivity
